target: cGAS (Homo sapiens, UniProt Q8N884); experiment: In vitro inhibition assay of cGAS activity (cGAMP production, RapidFire mass spectrometry); format: biochemical; set-up: Insert cDNA encoding full-length of human cGAS; His6; made in house; host or cells: E. coli BL21(DE3); conditions: 10 nM recombinant human cGAS, 60 nM 75-bp dsDNA, 50 μM ATP, 50 μM GTP, 3 hrs
Sequence (Q8N884 whole entry): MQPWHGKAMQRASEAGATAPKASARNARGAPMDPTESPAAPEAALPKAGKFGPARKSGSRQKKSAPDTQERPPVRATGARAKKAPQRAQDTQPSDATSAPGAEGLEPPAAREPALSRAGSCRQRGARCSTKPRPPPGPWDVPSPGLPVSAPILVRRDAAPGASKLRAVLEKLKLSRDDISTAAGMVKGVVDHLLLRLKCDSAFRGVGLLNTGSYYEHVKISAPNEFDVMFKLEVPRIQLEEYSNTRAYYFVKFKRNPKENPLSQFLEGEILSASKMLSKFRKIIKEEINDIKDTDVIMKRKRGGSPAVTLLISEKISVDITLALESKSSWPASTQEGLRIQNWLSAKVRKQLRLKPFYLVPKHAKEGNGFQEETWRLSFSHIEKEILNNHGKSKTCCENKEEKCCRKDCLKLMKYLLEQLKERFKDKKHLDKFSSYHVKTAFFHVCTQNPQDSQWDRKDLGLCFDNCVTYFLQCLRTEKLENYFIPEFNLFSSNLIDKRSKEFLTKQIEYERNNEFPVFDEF
IC50 values by entry
Field format: number, assumed nM, no unit text.

Cn1ncc(-c2cc(Cl)c(Cl)c3[nH]c4c(c23)CC(=O)NC[C@H]4CC(C)(F)F)n1 (single isomer, unassigned) [Example 137]	683
CC(C)(O)C[C@@H]1CNC(=O)Cc2c1[nH]c1c(Cl)c(Cl)cc(OCC#N)c21 (single isomer, unassigned) [Example 109]	159

Please find the next compound below.
Please report the recorded IC50 for C[C@H]1C(=O)NCC(C)(C)c2[nH]c3c(Cl)c(Cl)cc(NC(=O)CO)c3c21 (single isomer, unassigned) [Example 133] .
20

---

IC50 values by entry
biological target: cGAS (Homo sapiens); test: In vitro inhibition assay of cGAS activity (cGAMP production, RapidFire mass spectrometry); format: biochemical; set-up: Insert cDNA encoding full-length of human cGAS; His6; made in house; host or cells: E. coli BL21(DE3); conditions: 10 nM recombinant human cGAS, 60 nM 75-bp dsDNA, 50 μM ATP, 50 μM GTP, 3 hrs
Field format: number, assumed nM, no unit text.

Solved entries:
CC[C@H]1C(=O)NCCc2[nH]c3c(Cl)c(Cl)cc(OCC#N)c3c21 (single isomer, unassigned) [Example 36]	3950
C[C@@H]1CNC(=O)Cc2c1[nH]c1c(Cl)c(Cl)cc(-c3cnn(C)n3)c21 (single isomer, unassigned) [Example 147]	237

Please report the recorded IC50 for Cn1ncc(-c2cc(Cl)c(Cl)c3[nH]c4c(c23)CC(=O)NC[C@H]4CCO)n1 (single isomer, unassigned) [Example 8A] .
15.6

---

IC50 values by entry
biological target: cGAS (Homo sapiens); assay: Cellular assay to measure cGAS activity (IFNb AlphaLISA in THP1 cells stimulated by RDG-Adenovirus-GFP); format: cell-based; design: host or cells: THP1 cells differentiated with PMA and stimulated with RDG-Adenovirus-GFP; details: PMA-differentiated THP1 cells, RDG-Adenovirus-GFP at 1000 MOI; inhibition of IFNb production as marker for cGAS activity
Field format: number, assumed nM, no unit text.

Solved entries:
COCCOc1cc(Cl)c(Cl)c2[nH]c3c(c12)[C@H](C)C(=O)NCC3(C)C (single isomer, unassigned) [Example 184]	1370
CC1C(=O)NCCc2[nH]c3c(Cl)c(Cl)cc(CC#N)c3c21 (stereo not shown)	1120
Cn1c2c(c3c(CC#N)cc(Cl)c(Cl)c31)CC(=O)NC[C@H]2CCO (single isomer, unassigned) [Example 122]	2940
CC1C(=O)NCCc2[nH]c3c(Cl)c(Cl)cc(NC4COC4)c3c21 (racemic)	974
C[C@@H]1C(=O)NCCc2[nH]c3c(Cl)c(Cl)cc(OCc4cocn4)c3c21 (single isomer, unassigned) [Example 178]	311
CC1C(=O)NCCc2[nH]c3c(Cl)c(Cl)cc(OC[C@H]4CCO4)c3c21 (stereo partly shown)	793
CC(C)(O)C[C@@H]1CNC(=O)Cc2c1[nH]c1c(Cl)c(Cl)cc(OCC#N)c21 (single isomer, unassigned) [Example 109]	1860
COCC[C@H]1CNC(=O)[C@@H](C)c2c1[nH]c1c(Cl)c(Cl)cc(NCCO)c21 (single isomer, unassigned) [Example 173]	1610
Cn1ncc(-c2cc(Cl)c(Cl)c3c2c2c(n3C)C(CCO)CNC(=O)C2)n1 (stereo not shown)	1210
CC(F)(F)C[C@@H]1CNC(=O)Cc2c1[nH]c1c(Cl)c(Cl)cc(CC#N)c21 (single isomer, unassigned) [Example 139]	4610

Please report the recorded IC50 for Cn1ncc(-c2cc(Cl)c(Cl)c3[nH]c4c(c23)CC(=O)NC[C@H]4CC(C)(C)O)n1 (single isomer, unassigned) [Example 103] .
398

Repeat for the following compound: C[C@@H](O)CNc1cc(Cl)c(Cl)c2c1c1c(n2C)CCNC(=O)[C@@H]1C (single isomer, unassigned) [Example 98]
2180

Repeat for the following compound: CC1C(=O)NCC(C)(C)c2[nH]c3c(Cl)c(Cl)cc(NCCO)c3c21 (stereo not shown)
2720

Repeat for the following compound: CC[C@H]1C(=O)NCCc2[nH]c3c(Cl)c(Cl)cc(OCC#N)c3c21 (single isomer, unassigned) [Example 36]
1200

Repeat for the following compound: COCC(=O)Nc1cc(Cl)c(Cl)c2[nH]c3c(c12)[C@@H](C)C(=O)NCC3 (single isomer, unassigned) [Example 40]
787

Repeat for the following compound: CCCC1CNC(=O)Cc2c1[nH]c1c(Cl)c(Cl)cc(-c3cnn(C)n3)c21 (stereo not shown)
1380

Repeat for the following compound: Cn1ncc(-c2cc(Cl)c(Cl)c3[nH]c4c(c23)CC(=O)NC[C@H]4CC(C)(F)F)n1 (single isomer, unassigned) [Example 136]
1570

Repeat for the following compound: COCCNc1cc(Cl)c(Cl)c2c1c1c(n2C(F)F)CCNC(=O)C1C (stereo not shown)
2440

Repeat for the following compound: C[C@@H]1C(=O)NCCc2[nH]c3c(Cl)c(Cl)cc(OCC(N)=O)c3c21 (single isomer, unassigned) [Example 17B]
4080

Repeat for the following compound: CC1C(=O)NCCc2[nH]c3c(Cl)c(Cl)c(F)c(NCCO)c3c21 (racemic)
2220

Repeat for the following compound: C[C@H](O)COc1cc(Cl)c(Cl)c2[nH]c3c(c12)[C@H](C)C(=O)NCC3 (single isomer, unassigned) [Example 85]
7260

Repeat for the following compound: "Nc1noc(-c2cc(Cl)c(Cl)c3[nH]c4c(c23)CC(=O)NCC4)n1"
1200

Origin of values: patent US20240246979A1
